// EC50 lookup, one value per entry
Measurement target: IP receptor (Homo sapiens, UniProt P43119)
Sequence (P43119 whole entry): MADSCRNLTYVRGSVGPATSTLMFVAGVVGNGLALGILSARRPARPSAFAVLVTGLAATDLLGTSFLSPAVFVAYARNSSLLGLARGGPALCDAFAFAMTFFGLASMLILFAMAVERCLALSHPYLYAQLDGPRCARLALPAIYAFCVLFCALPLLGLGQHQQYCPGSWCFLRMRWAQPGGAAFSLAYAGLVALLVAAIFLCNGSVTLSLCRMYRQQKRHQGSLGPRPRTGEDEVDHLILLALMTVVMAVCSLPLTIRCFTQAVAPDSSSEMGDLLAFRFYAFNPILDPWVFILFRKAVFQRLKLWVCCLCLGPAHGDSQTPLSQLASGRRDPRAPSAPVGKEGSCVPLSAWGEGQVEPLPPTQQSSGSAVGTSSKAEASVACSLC
Assay comment: cAMP accumulation in CHO cells stably expressing the IP receptor (CHO-IP), Perkin Elmer AlphaScreen assay
Condition parameters: agonist activity, 1 hour at room temperature
Numbers only here, please. The scale is nM.

INPUT: Query: EC50; subject: Cc1ccc(-c2nc3c(nc2-c2ccc(C)cc2)N(CCCCCCC(=O)NC(C)C)CCC3)cc1
OUTPUT: 45

###

Measurement target: IP receptor (Homo sapiens)
Assay comment: cAMP accumulation in CHO cells stably expressing the IP receptor (CHO-IP), Perkin Elmer AlphaScreen assay
Condition parameters: agonist activity, 1 hour at room temperature
Mark 1 only for EC50 values smaller than 3 nM; exact matches and larger values are -1.

[
  {
    "Compound": "COC1CCN(CCCCCCC(=O)O)c2nc(-c3ccc(C)cc3)c(-c3ccc(C)cc3)nc21 (racemic)",
    "Answer label": 1
  }
]

Now take the following compound into account.
INPUT: Problem: For the compound Cc1ccc(-c2nc3c(nc2-c2ccc(C)cc2)N(CCCCCCC(=O)NS(C)(=O)=O)CCC3)cc1 , is EC50 under 3 nM?
OUTPUT: 1
